Reference for the values: patent US20240317748A1

tested on: HL-60 cells; assay: Cell proliferation assay (CellTiter-Glo), HL-60 control line; type: cell-based, human; conditions: Homo sapiens, 96 h; HL-60 control line, 10 μM, 4 days incubation; read-out: HL-60 (Pct of inhibition at 10 μM)
Threshold check on inhibition at 10 µM: at or above 10% gives true (1), strictly below gives false (0).

molecule	systemTested	classification
CCN(C(=O)c1cc(F)ccc1Oc1cncnc1N1CC2(CCN(C(=O)[C@@H]3C[C@@H](F)CN3)CC2)C1)C(C)C	HL-60 cells	false (0)
CC(C)N(C(=O)c1cc(F)ccc1Oc1nncnc1N1CC2(CCN(C(=O)[C@H]3NCC[C@@H]3C)CC2)C1)C(C)C	HL-60 cells	true (1)
CCN(C(=O)c1cc(F)ccc1Oc1nncnc1N1CC2(CCN(C(=O)[C@H]3NCC[C@@H]3OC)CC2)C1)C(C)C	HL-60 cells	true (1)
O=C([C@H]1NC[C@@H]2C[C@@H]21)N1CCC2(CC1)CN(c1ncnnc1Oc1ccc(F)cc1-c1cncnc1C1CC1)C2	HL-60 cells	false (0)
CC1(C)[C@@H]2[C@@H](C(=O)N3CCC4(CC3)CN(c3ncnnc3Oc3ccc(F)cc3-c3cncnc3C3CC3)C4)NC[C@@H]21	HL-60 cells	true (1)
O=C([C@H]1NC[C@@H]2CCC[C@@H]21)N1CCC2(CC1)CN(c1ncnnc1Oc1ccc(F)cc1-c1cncnc1C1CC1)C2	HL-60 cells	true (1)
C[C@H]1CCN[C@@H]1C(=O)N1CCC2(CC1)CN(c1ncnnc1Oc1ccc(F)cc1-c1cncnc1C1CC1)C2	HL-60 cells	true (1)
CCN(C(=O)c1cc(F)ccc1Oc1nncnc1N1CC2(CCN(C(=O)[C@@H]3C[C@@H](C)CN3)CC2)C1)C(C)C	HL-60 cells	false (0)
CCN(C(=O)c1cc(F)ccc1Oc1nncnc1N1CC2(CCN(C(=O)[C@H]3NC[C@H]4[C@@H]3C4(C)C)CC2)C1)C(C)C (stereo in doubt)	HL-60 cells	true (1)
C[C@H]1CCN[C@@H]1C(=O)N1CCC2(CC1)CN(c1ncnnc1Oc1ccc(F)cc1-c1ccc(C#N)cc1C1CC1)C2	HL-60 cells	true (1)
CCN(C(=O)c1cc(F)ccc1Oc1nncnc1N1CC2(CCN(C(=O)[C@H]3NCc4ccccc43)CC2)C1)C(C)C	HL-60 cells	false (0)
CC[C@H]1CCN[C@@H]1C(=O)N1CCC2(CC1)CN(c1ncnnc1Oc1ccc(F)cc1C(=O)N(CC)C(C)C)C2	HL-60 cells	false (0)
CCN(C(=O)c1cc(F)ccc1Oc1nncnc1N1CC2(CCN(C(=O)[C@H]3NCC[C@@H]3C)CC2)C1)C(C)C	HL-60 cells	false (0)

---

tested on: HL-60 cells; test: Cell proliferation assay (CellTiter-Glo), HL-60 control line; assay type: cell-based, human; conditions: Homo sapiens, 96 h; HL-60 control line, 10 μM, 4 days incubation; read-out: HL-60 (Pct of inhibition at 10 μM)
Measured inhibition at 10 µM, listed per entry.

moleculeSmiles	systemTested	inhibition at 10 µM / %
O=C([C@@H]1C[C@@H](F)CN1)N1CCC2(CC1)CN(c1ncnnc1Oc1ccc(F)cc1-c1cncnc1C1CC1)C2	HL-60 cells	-9.1
CC[C@@H]1[C@@H](C(=O)N2CCC3(CC2)CN(c2ncnnc2Oc2ccc(F)cc2C(=O)N(CC)C(C)C)C3)NC[C@@H]1F	HL-60 cells	10.8
CCN(C(=O)c1cc(F)ccc1Oc1nncnc1N1CC2(CCN(C(=O)[C@H]3NC[C@@H]4CCC[C@@H]43)CC2)C1)C(C)C	HL-60 cells	7.9

---

molecular target: Menin-MLL1 (Homo sapiens); construct: Menin (2-610) isform2; experiment: Menin-MLL1 inhibition assay (fluorescence polarization, Menin protein + FAM-MLL peptide); conditions: Menin (2-610) isoform 2, FAM-labelled MLL peptide, mP readout; read-out: Biochemical assay Menin-MLL1 IC50
reportedMetric: IC50 (nM)

compound	unitName	reportedValue
CCN(C(=O)c1cc(F)ccc1Oc1cncnc1N1CC2(CCN(C(=O)[C@@H]3C[C@]4(CO)CC4N3)CC2)C1)C(C)C (stereo partly drawn)	nM	6.3
CC[C@H]1CCN[C@@H]1C(=O)N1CCC2(CC1)CN(c1ncnnc1Oc1ccc(F)cc1C(=O)N(CC)C(C)C)C2	nM	4.6
C[C@@H]1CCN[C@@H]1C(=O)N1CCC2(CC1)CN(c1ncnnc1Oc1ccc(F)cc1-c1cncnc1C1CC1)C2	nM	4.4

---

Molecular target: Menin-MLL1 (Homo sapiens)
Construct: Menin (2-610) isform2
Sequence (O00255 2-610): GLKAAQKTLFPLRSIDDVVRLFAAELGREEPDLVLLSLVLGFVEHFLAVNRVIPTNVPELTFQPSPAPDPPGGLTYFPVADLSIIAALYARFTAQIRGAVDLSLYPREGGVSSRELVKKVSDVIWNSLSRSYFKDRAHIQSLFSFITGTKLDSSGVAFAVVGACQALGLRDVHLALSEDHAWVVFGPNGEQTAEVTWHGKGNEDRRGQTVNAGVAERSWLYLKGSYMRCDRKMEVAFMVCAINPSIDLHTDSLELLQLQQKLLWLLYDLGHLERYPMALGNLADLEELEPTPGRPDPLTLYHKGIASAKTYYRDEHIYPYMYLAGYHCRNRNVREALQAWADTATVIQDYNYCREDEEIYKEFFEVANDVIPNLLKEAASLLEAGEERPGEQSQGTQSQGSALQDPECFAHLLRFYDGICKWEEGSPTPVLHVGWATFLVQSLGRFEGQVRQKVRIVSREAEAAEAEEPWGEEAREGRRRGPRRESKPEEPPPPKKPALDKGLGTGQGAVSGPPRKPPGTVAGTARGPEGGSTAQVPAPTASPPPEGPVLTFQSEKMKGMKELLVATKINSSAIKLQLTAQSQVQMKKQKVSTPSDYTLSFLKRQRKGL
Test: Menin-MLL1 inhibition assay (fluorescence polarization, Menin protein + FAM-MLL peptide)
Settings: Menin (2-610) isoform 2, FAM-labelled MLL peptide, mP readout; read-out: Biochemical assay Menin-MLL1 IC50
pIC50: −log10 of the molar value.

compound	systemTested	pIC50
CC(C)N(CC(F)F)C(=O)c1cc(F)ccc1Oc1nncnc1N1CC2(CCN(C(=O)[C@H]3NC[C@@H]4CCC[C@@H]43)CC2)C1	Menin-MLL1 (Homo sapiens)	8.40
CCN(C(=O)c1cc(F)ccc1Oc1cncnc1N1CC2(CCN(C(=O)[C@H]3NCc4c3cnn4Cc3ccccc3)CC2)C1)C(C)C	Menin-MLL1 (Homo sapiens)	8.41
CCN(C(=O)c1cc(F)ccc1Oc1nncnc1N1CC2(CCN(C(=O)[C@H]3NCC[C@@H]3C3CC3)CC2)C1)C(C)C [Example 100a]	Menin-MLL1 (Homo sapiens)	8.57
CCN(C(=O)c1cc(F)ccc1Oc1nncnc1N1CC2(CCN(C(=O)[C@H]3NC[C@H]4CC(F)(F)C[C@H]43)CC2)C1)C(C)C (single isomer, unassigned) [Example 98a]	Menin-MLL1 (Homo sapiens)	8.27
CCN(C(=O)c1cc(F)ccc1Oc1cncnc1N1CC2(CCN(C(=O)[C@@H]3C[C@H](F)CN3)CC2)C1)C(C)C	Menin-MLL1 (Homo sapiens)	7.68
CCN(C(=O)c1cc(F)ccc1Oc1nncnc1N1CC2(CCN(C(=O)[C@H]3NCC[C@@H]3C)CC2)C1)C(C)C	Menin-MLL1 (Homo sapiens)	8.28

---

Measured pIC50, listed per entry.
target: Menin-MLL1 (Homo sapiens); construct: Menin (2-610) isform2; purchased ChemPartner 2020111101; assay: Menin-MLL1 inhibition assay (fluorescence polarization, Menin protein + FAM-MLL peptide); type: binding; settings: Menin (2-610) isoform 2, FAM-labelled MLL peptide, mP readout; read-out: Biochemical assay Menin-MLL1 IC50
pIC50: −log10 of the molar value.

compound	systemTested	pIC50
[2H]C([2H])(C)N(C(=O)c1cc(F)ccc1Oc1nncnc1N1CC2(CCN(C(=O)[C@H]3NC[C@@H]4CCC[C@@H]43)CC2)C1)C(C)C [Example 102]	Menin-MLL1 (Homo sapiens)	8.27
CC(C)n1ncc(Cl)c1-c1cc(F)ccc1Oc1nncnc1N1CC2(CCN(C(=O)[C@@H]3C[C@@H](F)CN3)CC2)C1 [Example 75]	Menin-MLL1 (Homo sapiens)	8.24
CCN(C(=O)c1cc(F)ccc1Oc1nncnc1N1CC2(CCN(C(=O)[C@@H]3CC(CC#N)CN3)CC2)C1)C(C)C (stereo partly shown) [Example 61]	Menin-MLL1 (Homo sapiens)	8.21
CCN(C(=O)c1cc(F)ccc1Oc1cncnc1N1CC2(CCN(C(=O)[C@@H]3C[C@@H](O)CN3)CC2)C1)C(C)C [Example 5]	Menin-MLL1 (Homo sapiens)	8.15
COCCN(C(=O)c1cc(F)ccc1Oc1cncnc1N1CC2(CCN(C(=O)[C@@H]3C[C@@H](F)CN3)CC2)C1)C(C)C [Example 50]	Menin-MLL1 (Homo sapiens)	8.36
CCN(C(=O)c1cc(F)ccc1Oc1nncnc1N1CC2(CCN(C(=O)[C@@H]3NCC[C@H]3C3CC3)CC2)C1)C(C)C [Example 100b]	Menin-MLL1 (Homo sapiens)	7.93
CCN(C(=O)c1cc(F)ccc1Oc1cncnc1N1CC2(CCN(C(=O)[C@@H]3CC[C@@H](F)CN3)CC2)C1)C(C)C [Example 25]	Menin-MLL1 (Homo sapiens)	8.08
CCN(C(=O)c1cc(F)ccc1Oc1nncnc1N1CC2(CCN(C(=O)[C@H]3NC[C@H]4[C@@H]3C4(C)C)CC2)C1)C(C)C (stereo in doubt) [Example 68]	Menin-MLL1 (Homo sapiens)	8.39
CCN(C(=O)c1cc(F)ccc1Oc1cncnc1N1CC2(CCN(C[C@H]3CC[C@H](NS(=O)(=O)CC)CC3)CC2)C1)C(C)C [SNDX-5613, reference compound]	Menin-MLL1 (Homo sapiens)	8.47
C[C@@H]1COCCN1C(=O)c1cc(F)ccc1Oc1cncnc1N1CC2(CCN(C(=O)[C@@H]3C[C@@H](F)CN3)CC2)C1 [Example 51]	Menin-MLL1 (Homo sapiens)	8.37
CCN(C(=O)c1cc(F)ccc1Oc1cncnc1N1CC2(CCN(C(=O)[C@@H]3C[C@@]4(C)C[C@H]4N3)CC2)C1)C(C)C [Example 9]	Menin-MLL1 (Homo sapiens)	7.89
CCN(C(=O)c1cc(F)ccc1Oc1nncnc1N1CC2(CCN(C(=O)[C@@H]3NCC[C@H]3CF)CC2)C1)C(C)C [Example 89]	Menin-MLL1 (Homo sapiens)	7.62
C[C@H]1CN[C@H](C(=O)N2CCC3(CC2)CN(c2ncnnc2Oc2ccc(F)cc2-c2cncnc2C2CC2)C3)C1 [Example 72]	Menin-MLL1 (Homo sapiens)	8.26
